The entries below are paired with their reported TGI.
system: OVCAR-5 ovarian; assay: NCI tumour cell line growth inhibition, 48 h

Some solved cases for reference:
CCCC[C@H](NC(=O)[C@H]1CCCN1C)C(=O)N(C)[C@H](C[C@@H](OC(C)=O)c1nc(C(=O)N[C@@H](Cc2ccccc2)C[C@H](C)C(=O)OCC)cs1)C(C)C ... > 33.3 µM
COc1cccc(NC(=O)CC(=O)N2N=C(N(CCC#N)c3ccc(Cl)cc3)CC2c2ccccc2)c1 (centres undefined) ... > 100 µM
Cc1sc(C(=O)Nc2cc(C(=O)NCCCN(C)C)n(C)c2)cc1NC(=O)CCCN1C(=O)c2cccc3cccc(c23)C1=O ... > 100 µM
OC[C@@H](O)[C@H]1NC[C@@H](O)[C@H]1O ... > 100 µM
C1CCSCCCCSCCCCSCCCCSC1 ... > 100 µM

Quick check: TGI of O=CNc1c(Cl)cc2c(c1Cl)Cc1cc([N+](=O)[O-])ccc1-2 ?
> 100 µM

====

Here, each record is paired with measured TGI data.
tested on: SNB-19 CNS; assay: NCI tumour cell line growth inhibition, 48 h

// worked examples, TGI included
O=C(Cn1ccc(=O)[nH]c1=O)Nc1ccc(C(=O)O)c(O)c1 ... > 100 µM
Cc1sc(C(=O)Nc2cc(C(=O)NCCCN(C)C)n(C)c2)cc1NC(=O)CCCN1C(=O)c2cccc3cccc(c23)C1=O ... > 100 µM
CN1CCN(CCc2cccc(C(=O)c3cnn(-c4ccc(F)cc4)c3N)c2)CC1 ... > 25 µM
O=C1c2ccccc2-c2c1c1ccccc1c(=O)n2CCCNCCCNCCCn1c2c(c3ccccc3c1=O)C(=O)c1ccccc1-2 ... 4.1 µM
O=C(O)C1CC(c2ccc(F)cc2)=Nc2ccc(F)cc2S1 (stereo not given) ... > 100 µM
O=C1c2ccccc2CN1c1ccc(O)cc1 ... > 100 µM

Sample C=CCc1c2c(c(OC)c3ccoc13)C(=O)/C(=C/c1ccccc1OC)O2 — what was its TGI?
> 100 µM

# query: TGI of entry CCOC(=O)C1=C(C(C)=O)CSC(c2ccccc2)=N1
> 100 µM

Reported TGI, molecule c1ccc2c(c1)[nH]c1nc3cc(-c4ccc5nc6c(nc5c4)[nH]c4ccccc46)ccc3nc12 : ____
> 100 µM

What does the data say about its TGI? Entry: CC(C)(C)N=c1n(C(C)(C)C)oc(=O)n1C(C)(C)C
> 100 µM

Would you mind telling me what TGI value was observed for O=[N+]([O-])C(=C(N1CCCCC1)N1CCCCC1)/C(Cl)=C(\Cl)Br ?
87.1 µM

Look at this molecule and give its reported TGI. CC(=O)NC(CCCNCc1ccccc1)C(=O)NCc1ccccc1 (stereo not given)
> 100 µM

Quick one: TGI for CCN(CC)c1ccc(C(=C2C=CC(=[N+](CC)Cc3cccc(S(=O)(=O)O)c3)C=C2)c2ccc(N(CC)Cc3cccc(S(=O)(=O)O)c3)cc2)cc1 ?
> 100 µM

====

system: OVCAR-8 ovarian; assay: NCI tumour cell line growth inhibition, 48 h; in the data active means GI50 below about 0.43 µM; inactive means the rest
In this exercise, the only acceptable responses are 1.0 (active), 0.0 (inactive)

CN1CCN(CCc2cccc(C(=O)c3cnn(-c4ccc(F)cc4)c3N)c2)CC1 ... 0.0
CCCCN1CCN(c2ccc3nc(-c4ccc5nc(-c6ccc(C(F)(F)F)cc6)[nH]c5c4)[nH]c3c2)CC1 ... 0.0
Cc1ccc2c(ccc3c[n+]4c5ccccc5ccc4n32)c1 ... 0.0
COC(=O)[C@]12CC[C@@H](C)[C@H](C)[C@@H]1C1=CC[C@@H]3[C@@]4(C)C[C@@H](OC(C)=O)[C@H](O)[C@@](C)(COC(C)=O)[C@@H]4[C@H](O)C[C@@]3(C)[C@]1(C)CC2 ... 0.0
COc1ccc2c(c1)O/C(=C\c1cccc(OCC(=O)Nc3nc4c(s3)CCCC4)c1)C2=O ... 0.0
ClCCn1c(CCl)nc2ccc(Cl)cc21 ... 1.0
O=C1c2ccccc2-c2c1c1ccccc1c(=O)n2CCCNCCCNCCCn1c2c(c3ccccc3c1=O)C(=O)c1ccccc1-2 ... 1.0
CN(CCCN)CCCNc1nc2ccccc2c2[nH]c3ccccc3c12 ... 1.0

Below: the item to evaluate.
Dear all, I need the recorded test outcome for O=C([O-])c1ccccc1Nc1ccccn1.O=C([O-])c1ccccc1Nc1ccccn1.[Ni+2] , thank you.
0.0

====

Quick list: GI50 per entry.
tested on: SK-MEL-28 melanoma; assay: NCI tumour cell line growth inhibition, 48 h

COC(=O)[C@]12CC[C@@H](C)[C@H](C)[C@@H]1C1=CC[C@@H]3[C@@]4(C)C[C@@H](OC(C)=O)[C@H](O)[C@@](C)(COC(C)=O)[C@@H]4[C@H](O)C[C@@]3(C)[C@]1(C)CC2 ... 2.42 µM

Any idea what GI50 was measured for C=CCc1c2c(c(OC)c3ccoc13)C(=O)/C(=C/c1ccccc1OC)O2 ?
5.21 µM

// returns reported GI50 for input Nc1cc2cccc[n+]2c2cc(Cl)ccc12
14.9 µM

Please report the recorded GI50 for CN(C)S(=O)(=O)c1ccc(NC(=O)COC(=O)c2ccc(S(=O)(=O)N3CCCCC3)cc2)cc1 .
> 100 µM

====

tested on: SR leukemia; assay: NCI tumour cell line growth inhibition, 48 h
TGI by entry:
Return type: number; implicit unit µM.

For orientation, consider the following solved cases.
COc1cccc(/C=C/C(=O)c2cccc(Nc3nc(Nc4ccccc4)nc(Nc4ccccc4)n3)c2)c1 ... 9.13
CC(C)(C)C[C@H]1NC(C(=O)NCC[C@H](O)CO)[C@H](c2cccc(Cl)c2)[C@@]12C(=O)Nc1cc(Cl)c(F)cc12 (stereo partly specified) ... 10.1

Quick check: TGI of CCCCCCCCCCCCOC(=S)NCCCC ?
42.7

====

system: SK-OV-3 ovarian; assay: NCI tumour cell line growth inhibition, 48 h
MEASURED QUANTITY: TGI

Give the measured TGI of CC(=O)OC(C)c1cc2c(s1)C(=O)c1sccc1C2=O (configuration not stated) .
9.73 µM

Given the molecule COc1ccc(C(=O)/C=C/c2ccc(/C=C/c3cc(OC)c(OC)c(OC)c3)cc2)cc1 , what is its reported TGI?
64.5 µM

Which TGI is listed for C=C1C(=O)O[C@H]2[C@H]1CC/C(COC(=O)NCc1ccccc1OC)=C\CC[C@@]1(C)O[C@@H]21 ?
26.8 µM

Name the reported TGI value associated with the molecule CCCCOc1ccc(NC(N)=Nc2ccc(Cl)cc2)cc1
22.7 µM

# get_value(readout='TGI', item= COc1ccc2nc3cc([N+](=O)[O-])ccc3c(NCCCCCN(C)C)c2c1 )
2.36 µM

Which value of TGI has been reported for COc1cc2c(cc1OC)C(N(C)C)C(c1ccccc1)=C2Cl (configuration not stated) in the records?
45.9 µM

I have this molecule here, CC1CCCCc2nc3c(c(=O)n21)CCCC3 (configuration not stated) , and I need its recorded TGI.
> 100 µM

Please look up its TGI: C1CCSCCCCSCCCCSCCCCSC1
> 100 µM

====

Below is a list of entries, each paired with its recorded log10(TGI) value.
test system: SNB-75 CNS; test: NCI tumour cell line growth inhibition, 48 h
Please be aware that the numbers have been log10-transformed from TGI in µM.

Worked set:
CC(=O)OC(C)c1cc2c(s1)C(=O)c1sccc1C2=O (stereo not drawn) ... 0.42
COc1ccc2c(c1)O/C(=C\c1cccc(OCC(=O)Nc3nc4c(s3)CCCC4)c1)C2=O ... 1.74
CCSC1=CC(=O)c2nc3ccccc3c3ccnc1c23 ... 1.42
COc1ccc(CC(CO)NC(=O)OCc2ccccc2)cc1Oc1ccc(CC(CO)NC(=O)OCc2ccccc2)cc1 (stereo not drawn) ... 1.07
C=CCC1([C@H](C)[C@@H](OC(C)=O)c2cc(OC)c(OC)c(OC)c2)C[C@@H](OC)CCC1=O (stereo partly drawn) ... 1.56

Which log10(TGI) value is on record for Nc1nn2c(C(Br)Br)cc(C(Br)Br)nc2c1[N+](=O)[O-] ?
0.36

Reported log10(TGI) for CC(C)=CCc1c2c(c3occ(-c4ccc(O)c(O)c4)c(=O)c3c1O)C=CC(C)(C)O2 : what is it?
0.93

What value of measured log10(TGI) is listed for CN(CCCN)CCCNc1nc2ccccc2c2[nH]c3ccccc3c12 ?
-0.03

====

tested on: SF-539 CNS; assay: NCI tumour cell line growth inhibition, 48 h
Items are presented alongside their recorded TGI.
Give a bare numeral; the unit µM is implied.

Take a look at these entries with their results.
O=C(Nc1cccc2cnccc12)c1cc2c(cc1Cl)Sc1nccn1S2(=O)=O ... 59.3
O=C(NC(Cc1c[nH]c2ccccc12)C(=O)O)/C(=C/c1ccccc1O)NC(=O)c1ccccc1 (stereo unspecified) ... 40.6

--- query ---
For SF-539 CNS, provide TGI of COc1c(CCC[P+](c2ccccc2)(c2ccccc2)c2ccccc2)cc2c(c1OC)OCO2 please.
13.7
